Hey, just so you know, these numbers are from the OligoGym collection.

# Lookup of reported normalised inhibition (eCFP-eYFP dual reporter) keyed by entry
Subject Of Test: UBE2D3
Experiment: reporter assay of Huesken 2005; further: test concentration or dose not given here
Experimental Setup: siRNA
Oligonucleotides are given in HELM: sugar(base)linkage, 5' to 3'; d 2'-deoxyribose, r ribose, m 2'-O-methylribose, p phosphate. ss, as = sense and antisense strand
Experimental Readout: normalised inhibition (eCFP-eYFP dual reporter) (%)

1) RNA1{r(C)p.r(U)p.r(G)p.r(C)p.r(U)p.r(U)p.r(U)p.r(A)p.r(A)p.r(C)p.r(A)p.r(A)p.r(U)p.r(U)p.r(U)p.r(C)p.r(U)p.r(A)p.r(A)p.d(T)p.d(T)}|RNA2{r(U)p.r(U)p.r(A)p.r(G)p.r(A)p.r(A)p.r(A)p.r(U)p.r(U)p.r(G)p.r(U)p.r(U)p.r(A)p.r(A)p.r(A)p.r(G)p.r(C)p.r(A)p.r(G)p.d(G)p.d(C)}$$$RNA1{StrandType:ss}|RNA2{StrandType:as}$ : 89.7
2) RNA1{r(U)p.r(G)p.r(G)p.r(G)p.r(A)p.r(C)p.r(C)p.r(U)p.r(A)p.r(A)p.r(U)p.r(G)p.r(A)p.r(C)p.r(A)p.r(G)p.r(C)p.r(C)p.r(C)p.d(T)p.d(T)}|RNA2{r(G)p.r(G)p.r(G)p.r(C)p.r(U)p.r(G)p.r(U)p.r(C)p.r(A)p.r(U)p.r(U)p.r(A)p.r(G)p.r(G)p.r(U)p.r(C)p.r(C)p.r(C)p.r(A)p.d(T)p.d(A)}$$$RNA1{StrandType:ss}|RNA2{StrandType:as}$ : 48.6

----------
Subject Of Test: UBE2B
Experiment: reporter assay of Huesken 2005
Experimental Setup: siRNA
Oligonucleotides are written 5' to 3', each unit as a sugar letter and its base; * is a phosphorothioate linkage, no mark a phosphodiester; rarer units and linkages stand in square brackets, end groups in braces. Plain capitals give the bases only. d = 2'-deoxy (DNA); r = 2'-OH (RNA)
Experimental Readout: normalised inhibition (eCFP-eYFP dual reporter) (%)

1. sense rGrCrGrCrArCrCrArUrCrUrGrArArArArCrArAdTdT / antisense rUrUrGrUrUrUrUrCrArGrArUrGrGrUrGrCrGrCdCdA : 72.8
2. sense rUrArUrCrUrUrArArCrArUrCrArArUrUrCrArGdTdT / antisense rCrUrGrArArUrUrGrArUrGrUrUrArArGrArUrAdGdA : 50.5
3. sense rCrArArArUrGrUrGrUrArUrGrCrUrGrArUrGrGdTdT / antisense rCrCrArUrCrArGrCrArUrArCrArCrArUrUrUrGdGdA : 62.6
4. sense rArUrGrGrUrArGrCrArUrArUrGrUrUrUrArGrAdTdT / antisense rUrCrUrArArArCrArUrArUrGrCrUrArCrCrArUdCdA : 69.4
5. sense rArGrCrCrArGrGrCrArGrCrArCrArGrCrUrUrUdTdT / antisense rArArArGrCrUrGrUrGrCrUrGrCrCrUrGrGrCrUdAdT : 71.4
6. sense rCrGrGrGrArUrUrUrCrArArGrCrGrGrUrUrArCdTdT / antisense rGrUrArArCrCrGrCrUrUrGrArArArUrCrCrCrGdCdA : 85.1
7. sense rUrGrGrArUrGrArArCrCrGrArArUrCrCrUrArAdTdT / antisense rUrUrArGrGrArUrUrCrGrGrUrUrCrArUrCrCrAdGdC : 74.3
8. sense rGrArUrGrUrArUrCrUrUrCrUrArUrCrUrUrArAdTdT / antisense rUrUrArArGrArUrArGrArArGrArUrArCrArUrCdAdT : 84.7
9. sense rGrUrGrGrArArUrGrCrArGrUrUrArUrArUrUrUdTdT / antisense rArArArUrArUrArArCrUrGrCrArUrUrCrCrArCdTdG : 84.6
10. sense rCrUrUrCrArGrArArUrCrGrArUrGrGrArGrUrCdTdT / antisense rGrArCrUrCrCrArUrCrGrArUrUrCrUrGrArArGdGdA : 72.2
11. sense rUrCrArGrUrCrUrCrUrGrCrUrGrGrArUrGrArAdTdT / antisense rUrUrCrArUrCrCrArGrCrArGrArGrArCrUrGrAdAdT : 62.4
12. sense rArUrUrUrCrArArGrCrGrGrUrUrArCrArArGrAdTdT / antisense rUrCrUrUrGrUrArArCrCrGrCrUrUrGrArArArUdCdC : 78.2
